# EXPERIMENTAL TARGET: IDH1 R132C (Homo sapiens, UniProt O75874, R132C)
# Construct: 6xHis
# Sequence (O75874 whole entry R132C): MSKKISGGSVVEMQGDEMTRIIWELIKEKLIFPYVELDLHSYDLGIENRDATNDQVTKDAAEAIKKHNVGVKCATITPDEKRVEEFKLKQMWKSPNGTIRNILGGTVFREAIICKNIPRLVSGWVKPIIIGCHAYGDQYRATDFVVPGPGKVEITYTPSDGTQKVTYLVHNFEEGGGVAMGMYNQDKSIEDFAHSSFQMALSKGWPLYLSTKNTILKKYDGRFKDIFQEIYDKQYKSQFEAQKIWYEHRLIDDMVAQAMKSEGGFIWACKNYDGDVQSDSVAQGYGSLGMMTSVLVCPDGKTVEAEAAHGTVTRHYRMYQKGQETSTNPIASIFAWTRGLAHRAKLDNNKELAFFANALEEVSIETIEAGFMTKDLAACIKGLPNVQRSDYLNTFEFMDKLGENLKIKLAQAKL
# PROTOCOL DESCRIPTION: Biochemical assay for IDH inhibition (NADPH fluorescence), mutant IDH1 R132C
# CONDITION DESCRIPTION: 25 nM IDH1-R132C, 1 hour pre-incubation, in triplet
# From the text: The present disclosure provides a biochemical assay method for detecting the IDH inhibition and selectivity of the compounds by detecting IDH enzyme activity directly. Wild-type IDH enzymes convert NADP^+ to NADPH when catalyzing the α-KG producing reaction. […] So, the activity of wild-type and mutant IDH1/2 could be measured by monitoring NADPH level change as NADPH is fluorescent (Excitation 340 nm, Emission 460 nm). […]
QUANTITY NAME: IC50

Consider the following illustrative entries.
>>> observed_value("C[C@H](Nc1nccc2c1CN(CC(F)F)C2=O)c1ccc(-c2ccnc(C(C)(C)C)c2)c(F)c1")
"100 to 500 nM"
>>> observed_value("CCN1Cc2c(ccnc2N[C@@H](C)c2ccc(-c3ccc(F)cc3)c(F)c2)C1=O")
"> 1000 nM"
>>> observed_value("CCN1Cc2c(ccnc2N[C@@H](C)c2cc(F)c(-c3ccnc(-c4cccnc4)c3)cc2F)C1=O")
"> 1000 nM"

We next turn to a different compound, shown below.
Could you share which IC50 value was measured for `CCN1Cc2c(ccnc2N[C@@H](C)c2cc(F)c(-c3ccnc(C4CC4)c3)cc2F)C1=O` ?
> 1000 nM
